The following molecules are listed with their measured viability at 24 h, 40 µM values.
# procedure-text: Cytotoxicity against mouse RAW264.7 cells assessed as cell viability at 40 uM measured after 24 hrs by MTT assay relative to control
# Type: toxicity, cell-based
# test-context: read-out: Activity

| molecule | viability at 24 h, 40 µM [%] |
| --- | --- |
| CC(=O)O[C@H]1C[C@@]2(C)[C@@H](C[C@@H](O)[C@H]3[C@@]4(C)CC[C@@H](O)[C@@H](C)[C@@H]4CC[C@@]32C)/C1=C(\CCC=C(C)C)C(=O)NOCc1ccccc1 | 0.07 |
| CONC(=O)c1ccccc1C(=O)O[C@@H]1CC[C@@]2(C)[C@@H](CC[C@@]3(C)[C@H]2[C@H](O)C[C@H]2/C(=C(\CCC=C(C)C)C(=O)OCc4ccccc4)[C@@H](OC(C)=O)C[C@@]23C)[C@@H]1C | 106 |
| CC(=O)O[C@H]1C[C@@]2(C)[C@@H](C[C@@H](O)[C@H]3[C@@]4(C)CC[C@@H](OC(=O)CCSSCCC(=O)N(O)C5CCCCC5)[C@@H](C)[C@@H]4CC[C@@]32C)/C1=C(\CCC=C(C)C)C(=O)OCc1ccccc1 | 80.1 |
| CCN1CCN(C(=O)c2ccccc2C(=O)O[C@@H]2CC[C@@]3(C)[C@@H](CC[C@@]4(C)[C@H]3[C@H](O)C[C@H]3/C(=C(\CCC=C(C)C)C(=O)OCc5ccccc5)[C@@H](OC(C)=O)C[C@@]34C)[C@@H]2C)CC1 | 5.62 |
| CC(=O)O[C@H]1C[C@@]2(C)[C@@H](C[C@@H](O)[C@H]3[C@@]4(C)CC[C@@H](OC(=O)CCSSCCC(=O)N(C)O)[C@@H](C)[C@@H]4CC[C@@]32C)/C1=C(\CCC=C(C)C)C(=O)OCc1ccccc1 | 48.8 |
| CON(C)C(=O)/C(CCC=C(C)C)=C1\[C@@H](OC(C)=O)C[C@@]2(C)[C@H]1C[C@@H](O)[C@H]1[C@@]3(C)CC[C@@H](O)[C@@H](C)[C@@H]3CC[C@@]12C | 55.5 |
| CC(=O)O[C@H]1C[C@@]2(C)[C@@H](C[C@@H](O)[C@H]3[C@@]4(C)CC[C@@H](OC(=O)CCSSCCC(=O)NOC5CCCCO5)[C@@H](C)[C@@H]4CC[C@@]32C)/C1=C(\CCC=C(C)C)C(=O)OCc1ccccc1 (some centres undefined) | 90.2 |
| CC(=O)O[C@H]1C[C@@]2(C)[C@@H](C[C@@H](O)[C@H]3[C@@]4(C)CC[C@@H](O)[C@@H](C)[C@@H]4CC[C@@]32C)/C1=C(\CCC=C(C)C)C(=O)NOc1ccc([N+](=O)[O-])cc1 | 56.5 |
| CC(=O)O[C@H]1C[C@@]2(C)[C@@H](C[C@@H](O)[C@H]3[C@@]4(C)CC[C@@H](OC(=O)c5ccccc5C(=O)N5CCCCC5)[C@@H](C)[C@@H]4CC[C@@]32C)/C1=C(\CCC=C(C)C)C(=O)OCc1ccccc1 | 103 |

* * *

# procedure-text: MRT(0 to infinity) in Sprague-Dawley rat administered intragastrically
# Format: ADME
# test-context: in vivo, po, route ig

| compound-smiles | units-of-measure | MRT inf |
| --- | --- | --- |
| C=CCONC(=O)CCSSCCC(=O)O[C@@H]1CC[C@@]2(C)[C@@H](CC[C@@]3(C)[C@H]2[C@H](O)C[C@H]2/C(=C(\CCC=C(C)C)C(=O)OCc4ccccc4)[C@@H](OC(C)=O)C[C@@]23C)[C@@H]1C | h | 2.02 |
